- TEST DETAILS: Human Liver Microsome Stability
- Type: in vitro ADME
- ASSAY SETUP: human liver microsomes 0.5 mg/mL, 37° C., 60 min, read-out: T1/2 (microsomal)
PARAMETER MEASURED: half-life at 2 μM

Qu. Recorded half-life at 2 μM of Fc1ccc2c(ccn2-c2cc(Cl)c3c(c2)CN(Cc2ccnc(C4COC4)c2)CCO3)c1 , please.
Ans. < 20 min

Qu. Recorded half-life at 2 μM of Cc1c(CN2CCOc3c(Cl)cc(-n4ccc5cc(F)ccc54)cc3C2)cnn1C , please.
Ans. < 20 min

Qu. Recorded half-life at 2 μM of O=c1cc(CN2CCOc3c(Cl)cc(-n4ccc5cc(F)ccc54)cc3C2)cc[nH]1 [Ref, reference compound] , please.
Ans. 20 to 50 min

Qu. Recorded half-life at 2 μM of O=c1cc(CN2CCOc3c(Cl)cc(-n4ccc5cc(F)ccc54)cc3C2)cco1 , please.
Ans. < 20 min

Qu. Recorded half-life at 2 μM of Nc1cnc(CN2CCOc3c(Cl)cc(-n4ccc5cc(F)ccc54)cc3C2)cn1 , please.
Ans. 20 to 50 min

###

- TARGET OR SYSTEM: UniProtKB P43116
- TEST DETAILS: EP2 Potency Assay (cAMP TR-FRET, CHO-K1 cells transfected with EP2 receptor, PGE2 at EC80)
- ASSAY SETUP: CHO-K1 cells expressing EP2, prostaglandin E2 at EC80, read-out: EP2 Potency (IC50 category)
pIC50: −log10 of the molar value.
PARAMETER MEASURED: pIC50

Qu. Recorded pIC50 of O=c1cc(CN2CCc3c(Cl)cc(-n4ccc5cc(F)ccc54)cc3C2)cc[nH]1 , please.
Ans. < 5.30

Qu. Recorded pIC50 of Fc1ccc2c(ccn2-c2cc(Cl)c3c(c2)CN(Cc2cncnc2)CC3)c1 , please.
Ans. < 5.30

Qu. Recorded pIC50 of COc1ncc(CN2CCOc3c(Cl)cc(-n4ccc5cncnc54)cc3C2)cn1 , please.
Ans. < 5.30

Qu. Recorded pIC50 of O=c1ncc(CN2CCOc3c(Cl)cc(N4CCOc5cc(F)ccc54)cc3C2)c[nH]1 , please.
Ans. 5.30 to 6.00

Qu. Recorded pIC50 of COc1ncc(CN2CCOc3c(Cl)cc(-n4ccc5cc(F)ccc54)cc3C2)cn1 , please.
Ans. 6.30 to 7.00

Qu. Recorded pIC50 of Fc1ccc2c(ccn2-c2cc(Cl)c3c(c2)CN(Cc2cnc[nH]2)CCO3)c1 , please.
Ans. < 5.30

Qu. Recorded pIC50 of O=c1ncc(CN2CCOc3c(Cl)cc(N4CCc5cc(Cl)ccc54)cc3C2)c[nH]1 , please.
Ans. 6.30 to 7.00

Qu. Recorded pIC50 of O=c1ncc(CN2CCOc3c(Cl)cc(-n4ccc5cc(F)ccc54)cc3C2)c(F)[nH]1 , please.
Ans. 5.30 to 6.00

Qu. Recorded pIC50 of COc1ncccc1CN1CCc2c(Cl)cc(-n3ccc4cc(F)ccc43)cc2C1 , please.
Ans. < 5.30

Qu. Recorded pIC50 of COc1ncc(CN2CCOc3c(Cl)cc(-c4ncc5ccccn45)cc3C2)cn1 , please.
Ans. 5.30 to 6.00

Qu. Recorded pIC50 of O=c1ncc(CN2CCOc3c(Cl)cc(-n4ccc5cc(C(F)(F)F)ccc54)cc3C2)c[nH]1 , please.
Ans. 5.30 to 6.00

Qu. Recorded pIC50 of O=c1ncc(CN2CCOc3c(Cl)cc(-n4ccc5cncnc54)cc3C2)c[nH]1 , please.
Ans. < 5.30

Qu. Recorded pIC50 of COC(=O)[C@H]1CC[C@H](CN2CCOc3c(Cl)cc(-n4ccc5cc(F)ccc54)cc3C2)CC1 , please.
Ans. < 5.30

Qu. Recorded pIC50 of COc1ncc(CN2CCOc3c(Cl)cc(-c4cccc5nccn45)cc3C2)cn1 , please.
Ans. 5.30 to 6.00

Qu. Recorded pIC50 of O=c1ccc(CN2CCOc3c(Cl)cc(-n4ccc5cc(F)ccc54)cc3C2)c[nH]1 , please.
Ans. 6.30 to 7.00

Qu. Recorded pIC50 of O=c1cc(CN2Cc3cc(-n4ccc5cc(F)ccc54)cc(Cl)c3OCC23COC3)cc[nH]1 , please.
Ans. < 5.30

Qu. Recorded pIC50 of Fc1ccc2c(ccn2-c2cc(Cl)c3c(c2)CN(Cc2ccco2)CCO3)c1 , please.
Ans. < 5.30

Qu. Recorded pIC50 of COc1ncc(CN2CCOc3c(Cl)cc(N4CCCc5cc(F)ccc54)cc3C2)cn1 , please.
Ans. < 5.30

Qu. Recorded pIC50 of Nc1ncc(CN2CCOc3c(Cl)cc(-n4ccc5cc(F)ccc54)cc3C2)cn1 , please.
Ans. > 7.00

Qu. Recorded pIC50 of COc1cc(CN2CCOc3c(Cl)cc(-n4ccc5cc(F)ccc54)c(C)c3C2)ccn1 , please.
Ans. < 5.30

Qu. Recorded pIC50 of O=c1ncc(CN2CCOc3c(Cl)cc(-n4ccc5ccncc54)cc3C2)c[nH]1 , please.
Ans. < 5.30

Qu. Recorded pIC50 of O=C(O)[C@H]1CC[C@H](CN2CCOc3c(Cl)cc(-n4ccc5cc(F)ccc54)cc3C2)CC1 , please.
Ans. 6.00 to 6.30

Qu. Recorded pIC50 of CNC(=O)[C@H]1CC[C@@H](CN2CCOc3c(Cl)cc(-n4ccc5cc(F)ccc54)cc3C2)CC1 , please.
Ans. 5.30 to 6.00

Qu. Recorded pIC50 of Nc1cnc(CN2CCOc3c(Cl)cc(-n4ccc5cc(F)ccc54)cc3C2)cn1 , please.
Ans. 6.00 to 6.30

Qu. Recorded pIC50 of COC(=O)c1cc(CN2CCOc3c(Cl)cc(-n4ccc5cc(F)ccc54)cc3C2)ccn1 , please.
Ans. 6.30 to 7.00

Qu. Recorded pIC50 of Fc1ccc2c(ccn2-c2cc(Cl)c3c(c2)CN(Cc2cccnn2)CCO3)c1 , please.
Ans. 6.00 to 6.30

Qu. Recorded pIC50 of Fc1ccc2c(ccn2-c2cc(Cl)c3c(c2)CN(Cc2cccc(C(F)F)c2)CCO3)c1 , please.
Ans. < 5.30

Qu. Recorded pIC50 of O=C1NN=CC1CN1CCOc2c(Cl)cc(-n3ccc4cc(F)ccc43)cc2C1 (stereo not drawn) , please.
Ans. 5.30 to 6.00

Qu. Recorded pIC50 of Fc1ccc2c(ccn2-c2cc(Cl)c3c(c2)CN(Cc2nnc[nH]2)CCO3)c1 , please.
Ans. < 5.30

Qu. Recorded pIC50 of O=c1ncc(CN2CCOc3c(Cl)cc(-n4ccc5ncccc54)cc3C2)c[nH]1 , please.
Ans. 6.00 to 6.30

Qu. Recorded pIC50 of COc1ncc(CN2CCOc3c(Cl)cc(-n4ccc5cc(C#N)ccc54)cc3C2)cn1 , please.
Ans. 6.00 to 6.30

Qu. Recorded pIC50 of Fc1ccc2c(ccn2-c2cc(Cl)c3c(c2)CN(Cc2cnc(Cl)cn2)CCO3)c1 , please.
Ans. 5.30 to 6.00

Qu. Recorded pIC50 of Fc1ccc2c(ccn2-c2cc(Cl)c3c(c2)CN(Cc2cocn2)CCO3)c1 , please.
Ans. < 5.30

###

- TARGET OR SYSTEM: EP2 receptor (Homo sapiens, UniProt P43116)
- Sequence (P43116 whole entry): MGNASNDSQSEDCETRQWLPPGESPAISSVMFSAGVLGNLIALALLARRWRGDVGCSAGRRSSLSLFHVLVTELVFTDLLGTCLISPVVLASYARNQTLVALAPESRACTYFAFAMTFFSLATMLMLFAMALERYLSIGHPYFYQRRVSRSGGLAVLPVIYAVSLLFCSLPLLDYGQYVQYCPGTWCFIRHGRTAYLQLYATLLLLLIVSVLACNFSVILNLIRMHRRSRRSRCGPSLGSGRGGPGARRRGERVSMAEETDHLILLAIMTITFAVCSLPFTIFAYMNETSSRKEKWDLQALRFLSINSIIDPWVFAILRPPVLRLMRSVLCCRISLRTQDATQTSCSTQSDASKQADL
- TEST DETAILS: EP2 Potency Assay (cAMP TR-FRET, CHO-K1 cells transfected with EP2 receptor, PGE2 at EC80)
- ASSAY SETUP: CHO-K1 cells expressing EP2, prostaglandin E2 at EC80, read-out: EP2 Potency (IC50 category)
pIC50: −log10 of the molar value.
PARAMETER MEASURED: pIC50

Qu. Recorded pIC50 of COc1n[nH]cc1CN1CCOc2c(Cl)cc(-n3ccc4cc(F)ccc43)cc2C1 [Compound 105] , please.
Ans. < 5.30

Qu. Recorded pIC50 of COc1ncc(CN2CCOc3c(Cl)cc(-n4ccc5cc(Br)ccc54)cc3C2)cn1 [Compound 22] , please.
Ans. < 5.30

Qu. Recorded pIC50 of O=c1ncc(CN2CCOc3c(Cl)cc(N4CCc5cc(F)ccc54)cc3C2)c[nH]1 [Compound 78] , please.
Ans. 6.30 to 7.00

Qu. Recorded pIC50 of COc1ncc(CN2CCOc3c(Cl)cc(-n4ccc5c(F)c(Cl)ccc54)cc3C2)cn1 [Compound 26] , please.
Ans. 6.00 to 6.30

Qu. Recorded pIC50 of CC(C)(C)OC(=O)n1cc(CN2CCOc3c(Cl)cc(-n4ccc5cc(F)ccc54)cc3C2)cn1 [Compound 104] , please.
Ans. < 5.30

Qu. Recorded pIC50 of Nc1nccc(CN2CCOc3c(Cl)cc(-n4ccc5cc(F)ccc54)cc3C2)n1 [Compound 163] , please.
Ans. 5.30 to 6.00

Qu. Recorded pIC50 of O=c1cc(CN2CCOc3c(Cl)cc(-n4ccc5cc(F)ccc54)cc32)cc[nH]1 [Compound 241] , please.
Ans. < 5.30

Qu. Recorded pIC50 of CN(C)c1ccc2c(ccn2-c2cc(Cl)c3c(c2)CN(Cc2cnc(=O)[nH]c2)CCO3)c1 [Compound 61] , please.
Ans. < 5.30

Qu. Recorded pIC50 of Oc1cccc(CN2CCOc3c(Cl)cc(-n4ccc5cc(F)ccc54)cc3C2)c1 [Compound 120] , please.
Ans. < 5.30

Qu. Recorded pIC50 of Oc1ccccc1CN1CCOc2c(Cl)cc(-n3ccc4cc(F)ccc43)cc2C1 [Compound 119] , please.
Ans. < 5.30

Qu. Recorded pIC50 of COc1ncc(CN2CCOc3c(Cl)cc(-n4cc(C(F)(F)F)c5ccccc54)cc3C2)cn1 [Compound 17] , please.
Ans. 5.30 to 6.00

Qu. Recorded pIC50 of Fc1ccc2c(ccn2-c2cc(Cl)c3c(c2)CN(Cc2cncs2)CCO3)c1 [Compound 99] , please.
Ans. 6.00 to 6.30

Qu. Recorded pIC50 of Fc1ccc2c(ccn2-c2cc(Cl)c3c(c2)CN(Cc2ccoc2)CCO3)c1 [Compound 90] , please.
Ans. < 5.30

Qu. Recorded pIC50 of CN(C)C(=O)[C@H]1CC[C@H](CN2CCOc3c(Cl)cc(-n4ccc5cc(F)ccc54)cc3C2)CC1 [Compound 130] , please.
Ans. 5.30 to 6.00

Qu. Recorded pIC50 of Cc1c(CN2CCOc3c(Cl)cc(-n4ccc5cc(F)ccc54)cc3C2)ccnc1Cl [Compound 191] , please.
Ans. 5.30 to 6.00

Qu. Recorded pIC50 of O=c1ncc(CN2CCOc3c(Cl)cc(-n4ccc5cccnc54)cc3C2)c[nH]1 [Compound 69] , please.
Ans. < 5.30

Qu. Recorded pIC50 of Fc1ccc2c(ccn2-c2cc(Cl)c3c(c2)CN(Cc2cn[nH]n2)CCO3)c1 [Compound 108] , please.
Ans. 5.30 to 6.00

The measured values listed here are drawn from patent US12624024B2.
